# Kd values compiled below
measured-on: FGFR4 (Homo sapiens, UniProt P22455)
Construct: made in house; host or cells: E. coli derived from BL21, infected with T7 phage
Sequence (P22455 22-802): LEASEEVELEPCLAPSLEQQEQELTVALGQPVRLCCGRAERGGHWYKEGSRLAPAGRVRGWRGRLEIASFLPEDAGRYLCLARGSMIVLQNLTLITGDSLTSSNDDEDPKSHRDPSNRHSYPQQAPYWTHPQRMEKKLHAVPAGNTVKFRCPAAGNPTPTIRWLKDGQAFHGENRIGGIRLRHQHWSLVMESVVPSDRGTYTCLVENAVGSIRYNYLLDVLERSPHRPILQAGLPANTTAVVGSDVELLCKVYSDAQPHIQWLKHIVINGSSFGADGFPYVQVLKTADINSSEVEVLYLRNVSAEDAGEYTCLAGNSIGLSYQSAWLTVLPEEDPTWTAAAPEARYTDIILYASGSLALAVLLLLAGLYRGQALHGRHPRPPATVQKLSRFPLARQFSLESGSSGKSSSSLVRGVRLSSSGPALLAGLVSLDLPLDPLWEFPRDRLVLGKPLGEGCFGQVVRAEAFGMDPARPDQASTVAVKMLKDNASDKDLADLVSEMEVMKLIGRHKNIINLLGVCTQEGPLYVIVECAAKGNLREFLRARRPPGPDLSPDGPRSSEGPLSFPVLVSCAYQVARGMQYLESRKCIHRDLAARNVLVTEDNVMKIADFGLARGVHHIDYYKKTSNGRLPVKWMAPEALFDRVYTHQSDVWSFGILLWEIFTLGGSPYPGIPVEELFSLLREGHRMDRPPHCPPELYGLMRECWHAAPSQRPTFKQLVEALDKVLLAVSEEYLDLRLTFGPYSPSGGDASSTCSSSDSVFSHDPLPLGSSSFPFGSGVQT
assay-name: Kinase binding assay (kinase-tagged T7 phage, qPCR), Kd
settings: read-out: FGFR4 (Kd nM)

Specify reported Kd for the molecule shown: C[C@@H](Oc1ccc2[nH]nc(-c3cnc4c(c3)N(Cc3ccccn3)CCO4)c2c1)c1c(Cl)cncc1Cl
250 to 1000 nM

Specify reported Kd for the molecule shown: C[C@@H](Oc1ccc2[nH]nc(-c3ccc(NC(=O)N4CCN(C)CC4)nc3)c2c1)c1c(Cl)cncc1Cl
0.1 to 100 nM

Specify reported Kd for the molecule shown: COc1cc(OCC2CC2)cc(-c2n[nH]c3ccc(O[C@H](C)c4c(C)cnnc4C)cc23)c1
0.1 to 100 nM

Specify reported Kd for the molecule shown: C[C@@H](Oc1ccc2[nH]nc(-c3cnc(O[C@@H]4CCOC4)c(C#N)c3)c2c1)c1c(Cl)cncc1Cl
0.1 to 100 nM

###

# Kd values compiled below
measured-on: FGFR3 (Homo sapiens)
Construct: made in house; host or cells: E. coli derived from BL21, infected with T7 phage
assay-name: Kinase binding assay (kinase-tagged T7 phage, qPCR), Kd
settings: read-out: FGFR3 (Kd nM)

Here are 10 compounds together with their reported answers.
Cc1cnnc(C)c1[C@@H](C)Oc1ccc2[nH]nc(-c3cc(C#N)cc(OC4CCOCC4)c3)c2c1 :: 250 to 1000 nM
COc1ncc(-c2n[nH]c3ccc(O[C@H](C)c4c(C)cnnc4C)cc23)cc1C#N :: 100 to 250 nM
COc1cc2[nH]nc(-c3cnc(N(C)C)c(C#N)c3)c2cc1O[C@H](C)c1c(Cl)cncc1Cl :: 0.1 to 100 nM
COc1cc2[nH]nc(-c3cc(C#N)cc(C4CC4)c3)c2cc1O[C@H](C)c1c(C)cnnc1C :: 100 to 250 nM
COc1cc(-c2n[nH]c3ccc(O[C@H](C)c4c(C)cnnc4C)cc23)cc(C#N)c1OC :: 100 to 250 nM
C[C@@H](Oc1cc2c(-c3cnc4c(c3)N(S(C)(=O)=O)CCO4)n[nH]c2cc1Cl)c1c(Cl)cncc1Cl :: > 1000 nM
Cc1ncc(Cl)c([C@@H](C)Oc2ccc3[nH]nc(-c4ccc(O[C@H]5CCOC5)nc4)c3c2)c1Cl :: 0.1 to 100 nM
CNC(=O)c1ccc(-c2n[nH]c3ccc(O[C@H](C)c4c(Cl)cncc4Cl)cc23)cn1 :: 0.1 to 100 nM
Cc1cc2[nH]nc(-c3cnc(O[C@@H]4CCOC4)c(C#N)c3)c2cc1O[C@H](C)c1c(Cl)cncc1Cl :: 0.1 to 100 nM
COc1ncc(-c2n[nH]c3ccc(O[C@H](C)c4c(Cl)cncc4Cl)cc23)cc1NC(=O)c1cccc2cccnc12 :: > 1000 nM

Retrieve Kd on FGFR3 (Homo sapiens); query C[C@@H](Oc1ccc2[nH]nc(-c3cnc4c(c3)N(C(=O)N3CCOCC3)CCO4)c2c1)c1c(Cl)cncc1Cl
100 to 250 nM

Retrieve Kd on FGFR3 (Homo sapiens); query COc1cc(-c2n[nH]c3ccc(O[C@H](C)c4c(Cl)cncc4Cl)cc23)cc(C#N)c1OC1CCNCC1
250 to 1000 nM

###

# Kd values compiled below
measured-on: FGFR1 (Homo sapiens, UniProt P11362)
Construct: made in house; host or cells: E. coli derived from BL21, infected with T7 phage
Sequence (P11362 22-822): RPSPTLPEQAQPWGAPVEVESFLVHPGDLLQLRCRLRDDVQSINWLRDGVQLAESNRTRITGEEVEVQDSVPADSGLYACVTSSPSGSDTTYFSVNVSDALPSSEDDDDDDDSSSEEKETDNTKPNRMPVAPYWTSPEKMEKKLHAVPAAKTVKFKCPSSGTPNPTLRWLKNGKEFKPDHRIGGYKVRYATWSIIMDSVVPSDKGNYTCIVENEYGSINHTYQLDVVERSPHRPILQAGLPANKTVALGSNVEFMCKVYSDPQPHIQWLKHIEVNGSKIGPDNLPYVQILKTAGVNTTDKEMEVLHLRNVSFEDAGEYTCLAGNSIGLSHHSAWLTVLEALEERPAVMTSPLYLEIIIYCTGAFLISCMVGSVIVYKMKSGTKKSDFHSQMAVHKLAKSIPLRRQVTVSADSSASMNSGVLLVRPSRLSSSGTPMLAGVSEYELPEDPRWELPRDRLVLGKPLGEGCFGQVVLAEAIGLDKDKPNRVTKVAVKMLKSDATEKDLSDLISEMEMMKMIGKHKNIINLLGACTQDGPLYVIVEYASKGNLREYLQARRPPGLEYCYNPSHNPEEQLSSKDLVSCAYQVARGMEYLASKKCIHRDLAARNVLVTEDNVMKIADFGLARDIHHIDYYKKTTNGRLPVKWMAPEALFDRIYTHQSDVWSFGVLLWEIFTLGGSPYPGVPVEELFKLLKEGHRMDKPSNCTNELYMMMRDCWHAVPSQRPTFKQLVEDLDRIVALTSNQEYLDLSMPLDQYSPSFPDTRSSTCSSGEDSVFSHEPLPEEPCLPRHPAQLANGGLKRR
assay-name: Kinase binding assay (kinase-tagged T7 phage, qPCR), Kd
settings: read-out: FGFR1 (Kd nM)
Method: Kinase-tagged T7 phage strains were prepared in an E. coli host derived from the BL21 strain. E. coli were grown to log-phase and infected with T7 phage and incubated with shaking at 32° C. until lysis. […] Kds were determined using an 11-point 3-fold compound dilution series with three DMSO control points. […] The kinase concentration in the eluates was measured by qPCR. Binding constants were calculated with a standard dose-response curve using the Hill equation: […]

C[C@@H](Oc1ccc2[nH]nc(-c3ccc(C(N)=O)nc3)c2c1)c1c(Cl)cncc1Cl :: 0.1 to 100 nM
C[C@@H](Oc1ccc2[nH]nc(-c3ccc4c(c3)COC3(CCN(CC(F)F)CC3)O4)c2c1)c1c(Cl)cncc1Cl :: 0.1 to 100 nM
Cc1cnnc(C)c1[C@@H](C)Oc1ccc2[nH]nc(-c3cnc(O[C@@H]4CCOC4)c(C#N)c3)c2c1 :: 100 to 250 nM

Specify reported Kd for the compound shown: COc1cc(-c2n[nH]c3ccc(O[C@H](C)c4c(C)cnnc4C)cc23)cc2c1OC1(CCN(C(C)C)CC1)OC2
0.1 to 100 nM

###

measured-on: FGFR3 (Homo sapiens)
Construct: made in house; host or cells: E. coli derived from BL21, infected with T7 phage
assay-name: Kinase binding assay (kinase-tagged T7 phage, qPCR), Kd
settings: read-out: FGFR3 (Kd nM)
readout: Kd

Here are 3 compounds together with their reported answers.
C[C@@H](Oc1ccc2[nH]nc(-c3cnc(NC(=O)CN(C)C)c(F)c3)c2c1)c1c(Cl)cncc1Cl [Example 22] :: 0.1 to 100 nM
COc1cc(-c2n[nH]c3ccc(O[C@H](C)c4c(C)cnnc4C)cc23)cc(C#N)c1F [Example 93] :: > 1000 nM
Cc1cnnc(C)c1[C@@H](C)Oc1ccc2[nH]nc(-c3cc(C#N)cc(OCCO)c3)c2c1 [Example 72] :: 0.1 to 100 nM

Specify reported Kd for the compound shown: C[C@@H](Oc1ccc2[nH]nc(-c3cnc4c(c3)N(C(=O)CCN(C)C)CCO4)c2c1)c1c(Cl)cncc1Cl [Example 26]
250 to 1000 nM

Specify reported Kd for the compound shown: COCCNc1cc(-c2n[nH]c3ccc(O[C@H](C)c4c(Cl)cncc4Cl)cc23)ccn1 [Example 35]
0.1 to 100 nM

Specify reported Kd for the compound shown: Cc1cnnc(C)c1[C@@H](C)Oc1ccc2[nH]nc(-c3cc(C#N)cc(OCC4CC4)c3)c2c1 [Example 78]
250 to 1000 nM

Specify reported Kd for the compound shown: Cc1cnnc(C)c1[C@@H](C)Oc1ccc2[nH]nc(-c3cc(C#N)cc(N4CCN(C)CC4)c3)c2c1 [Example 62]
> 1000 nM

###

# Kd values compiled below
measured-on: FGFR2 (Homo sapiens, UniProt P21802)
Construct: made in house; host or cells: E. coli derived from BL21, infected with T7 phage
Sequence (P21802 22-821): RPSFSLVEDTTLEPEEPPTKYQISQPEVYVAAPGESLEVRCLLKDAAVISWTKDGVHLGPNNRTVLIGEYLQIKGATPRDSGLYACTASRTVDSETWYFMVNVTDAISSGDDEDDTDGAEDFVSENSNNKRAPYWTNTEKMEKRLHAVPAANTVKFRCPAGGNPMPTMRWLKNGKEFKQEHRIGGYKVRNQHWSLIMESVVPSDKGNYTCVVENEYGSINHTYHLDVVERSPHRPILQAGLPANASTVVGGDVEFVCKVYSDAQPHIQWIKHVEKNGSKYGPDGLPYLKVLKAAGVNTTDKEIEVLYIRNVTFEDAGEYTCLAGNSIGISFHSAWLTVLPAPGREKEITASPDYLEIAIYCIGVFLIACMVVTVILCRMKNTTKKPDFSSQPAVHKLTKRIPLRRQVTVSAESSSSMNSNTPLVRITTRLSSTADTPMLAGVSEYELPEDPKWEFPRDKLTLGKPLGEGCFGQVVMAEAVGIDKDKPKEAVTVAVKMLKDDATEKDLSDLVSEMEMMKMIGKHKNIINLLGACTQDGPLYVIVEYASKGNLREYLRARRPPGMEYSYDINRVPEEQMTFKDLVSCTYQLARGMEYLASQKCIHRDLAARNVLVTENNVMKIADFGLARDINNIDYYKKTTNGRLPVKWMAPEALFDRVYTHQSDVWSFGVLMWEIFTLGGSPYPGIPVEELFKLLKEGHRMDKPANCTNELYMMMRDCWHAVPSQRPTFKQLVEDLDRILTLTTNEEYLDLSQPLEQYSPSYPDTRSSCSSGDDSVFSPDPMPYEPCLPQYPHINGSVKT
assay-name: Kinase binding assay (kinase-tagged T7 phage, qPCR), Kd
settings: read-out: FGFR2 (Kd nM)

Cc1cnnc(C)c1[C@@H](C)Oc1ccc2[nH]nc(-c3cc(C#N)cc(OC4CCOCC4)c3)c2c1 :: > 1000 nM
COc1cc(OCC2CC2)cc(-c2n[nH]c3ccc(O[C@H](C)c4c(C)cnnc4C)cc23)c1 :: > 1000 nM
C[C@@H](Oc1cc2c(-c3cnc(O[C@@H]4CCOC4)c(C#N)c3)n[nH]c2cc1F)c1c(Cl)cncc1Cl :: 250 to 1000 nM

Specify reported Kd for the compound shown: Cc1cnnc(C)c1[C@@H](C)Oc1ccc2[nH]nc(-c3ccc4c(c3)COC3(CCN(C(C)C)CC3)O4)c2c1
0.1 to 100 nM

###

# IC50 values compiled below
measured-on: FGFR3-BAIAP2L1 Ba/F3 (Homo sapiens)
Construct: host or cells: Ba/F3; the other entry of the earlier key: BAIAP2L1 (Q9UHR4, BAR/IMD domain-containing adapter protein 2-like 1)
Sequence (P22607 397-758 limits assumed): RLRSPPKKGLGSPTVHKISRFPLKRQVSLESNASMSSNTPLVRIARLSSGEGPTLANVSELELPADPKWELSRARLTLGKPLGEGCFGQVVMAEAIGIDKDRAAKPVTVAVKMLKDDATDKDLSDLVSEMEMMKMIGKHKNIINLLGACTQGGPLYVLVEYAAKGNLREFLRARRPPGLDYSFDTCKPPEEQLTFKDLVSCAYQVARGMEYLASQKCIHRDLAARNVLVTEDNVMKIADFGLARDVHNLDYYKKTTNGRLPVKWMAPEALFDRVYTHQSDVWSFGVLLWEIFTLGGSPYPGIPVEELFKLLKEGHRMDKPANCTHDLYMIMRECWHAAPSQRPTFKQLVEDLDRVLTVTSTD
assay-name: Ba/F3 cell viability assay (CellTiter-Glo 2.0)
Assay type: cell-based
settings: Ba/F3 FGFR3-BAIAP2L1 cells, 48 hours

Here are 2 molecules together with their reported answers.
COc1c(F)cc(-c2n[nH]c3ccc(O[C@H](C)c4c(C)cnnc4C)cc23)cc1C#N :: 100 to 250 nM
C[C@@H](Oc1ccc2[nH]nc(-c3ccc(N)nc3)c2c1)c1c(Cl)cncc1Cl :: 0.1 to 100 nM

Consider the additional molecule presented here.
Specify reported IC50 for the molecule shown: Cc1ncc(Cl)c([C@@H](C)Oc2ccc3[nH]nc(-c4ccc5c(c4)COC4(CCN(S(C)(=O)=O)CC4)O5)c3c2)c1Cl
0.1 to 100 nM

###

measured-on: FGFR3 (Homo sapiens, UniProt P22607)
Construct: made in house; host or cells: E. coli derived from BL21, infected with T7 phage
Sequence (P22607 23-806): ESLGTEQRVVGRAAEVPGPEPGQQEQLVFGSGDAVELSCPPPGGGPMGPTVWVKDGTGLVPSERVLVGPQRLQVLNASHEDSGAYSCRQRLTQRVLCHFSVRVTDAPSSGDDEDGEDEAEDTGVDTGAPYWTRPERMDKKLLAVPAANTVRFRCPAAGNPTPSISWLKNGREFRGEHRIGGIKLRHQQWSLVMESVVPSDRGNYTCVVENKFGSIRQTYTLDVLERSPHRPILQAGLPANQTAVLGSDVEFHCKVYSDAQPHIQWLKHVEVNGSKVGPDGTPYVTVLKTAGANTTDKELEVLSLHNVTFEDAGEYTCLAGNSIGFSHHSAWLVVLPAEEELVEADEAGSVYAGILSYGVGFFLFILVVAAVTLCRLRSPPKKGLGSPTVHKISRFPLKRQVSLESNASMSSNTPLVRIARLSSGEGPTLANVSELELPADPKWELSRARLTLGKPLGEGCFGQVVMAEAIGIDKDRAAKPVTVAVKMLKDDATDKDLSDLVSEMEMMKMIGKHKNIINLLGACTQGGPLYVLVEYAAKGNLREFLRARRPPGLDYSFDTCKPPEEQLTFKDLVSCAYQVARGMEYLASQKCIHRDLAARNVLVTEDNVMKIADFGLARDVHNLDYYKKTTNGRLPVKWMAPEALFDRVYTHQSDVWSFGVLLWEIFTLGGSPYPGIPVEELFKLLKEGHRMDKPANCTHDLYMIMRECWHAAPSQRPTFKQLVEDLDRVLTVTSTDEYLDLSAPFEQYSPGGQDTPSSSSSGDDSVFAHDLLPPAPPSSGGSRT
assay-name: Kinase binding assay (kinase-tagged T7 phage, qPCR), Kd
settings: read-out: FGFR3 (Kd nM)
readout: Kd

Here are 5 compounds together with their reported answers.
Cc1cc(-c2n[nH]c3ccc(O[C@H](C)c4c(Cl)cncc4Cl)cc23)cnc1NC1CCOCC1 [Example 151] :: 0.1 to 100 nM
C[C@@H](Oc1ccc2[nH]nc(-c3cnc4c(c3)NCCO4)c2c1)c1c(Cl)cncc1Cl [Example 17] :: 0.1 to 100 nM
C[C@@H](Oc1ccc2[nH]nc(-c3cnc(N)c(OCC(F)(F)F)c3)c2c1)c1c(Cl)cncc1Cl [Example 37] :: > 1000 nM
C[C@@H](Oc1ccc2[nH]nc(-c3ccc(OC4CC5(C4)CN(S(C)(=O)=O)C5)nc3)c2c1)c1c(Cl)cncc1Cl [Example 152] :: 0.1 to 100 nM
COc1c(C#N)cc(-c2n[nH]c3ccc(O[C@H](C)c4c(C)cnnc4C)cc23)cc1C#N [Example 85] :: 250 to 1000 nM

Specify reported Kd for the compound shown: COc1cc(-c2n[nH]c3ccc(O[C@H](C)c4c(C)cnnc4C)cc23)cc2c1OC1(CCN(C(C)C)CC1)OC2 [Example 125]
0.1 to 100 nM

Specify reported Kd for the compound shown: Cc1cc(-c2n[nH]c3ccc(O[C@H](C)c4c(C)cnnc4C)cc23)cc(C#N)c1OC1CCN(C(C)C)CC1 [Example 110]
0.1 to 100 nM
